Biological target: human dopamine D3 receptors (Homo sapiens, UniProt P35462)
Sequence (P35462 whole entry): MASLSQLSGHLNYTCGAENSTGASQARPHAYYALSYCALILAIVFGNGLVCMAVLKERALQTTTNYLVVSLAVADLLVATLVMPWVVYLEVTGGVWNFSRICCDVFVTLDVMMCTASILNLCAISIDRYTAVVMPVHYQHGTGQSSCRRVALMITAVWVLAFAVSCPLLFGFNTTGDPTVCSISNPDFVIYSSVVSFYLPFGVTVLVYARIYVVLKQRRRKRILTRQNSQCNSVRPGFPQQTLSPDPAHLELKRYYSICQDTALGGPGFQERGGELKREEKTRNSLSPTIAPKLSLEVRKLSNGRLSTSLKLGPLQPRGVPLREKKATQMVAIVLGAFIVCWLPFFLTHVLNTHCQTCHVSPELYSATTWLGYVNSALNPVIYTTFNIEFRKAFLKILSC
METRIC NAME: Ki (nM)
Write it as a number; the unit nM goes unstated.

Ki of O=c1[nH]c(=O)n(CCCCN2CCN(Cc3ccc(Cl)cc3Cl)CC2)cc1F on human dopamine D3 receptors (Homo sapiens, UniProt P35462)?
10.6
